- ASSAY_OVERVIEW: NCI Yeast Anticancer Drug Screen. Data for the mlh1 rad18 strain (AID 175)
- CONDITION_NOTES: S. cerevisiae mlh1 rad18 strain growth inhibition, hits give high values; at 50.0 µM unless noted
- Method: Growth inhibition of yeast strains with defined genetic alterations is measured as a screen for potential anti-cancer activity. Selected strains with alterations in DNA damage repair or cell cycle control were exposed to compounds and growth inhibition was measured relative to vehicle treated controls. The strain used in this assay is mlh1 rad18
This is part of a sample that, as a whole, favours compounds with a hit. Of some 79,000 tested, about 15% had one in any assay.
METRIC_NAME: growth inhibition (%)
Kindly answer with a numeric value in %, unit omitted.

Solved entries (count: 3):
[
  {
    "MOLECULE": "CC(=O)Oc1cccc2c1C(=O)c1c(OC(C)=O)cc(C)cc1C2=O",
    "RECORDED_NUMBER": -15.6
  },
  {
    "MOLECULE": "CN(C)c1ccc(C2NC(=S)NC3=C2CCCC3)cc1 (stereo unspecified)",
    "RECORDED_NUMBER": 14.6
  },
  {
    "MOLECULE": "Nc1cc(Nc2ccccc2)nc(=O)[nH]1",
    "RECORDED_NUMBER": 5.2
  }
]

Measured growth inhibition of Nc1ccc2c(c1)C(=O)c1cc(Cl)cc(Cl)c1-2 : 2.25

Measured growth inhibition of O=S(=O)(O)c1cc(S(=O)(=O)O)c2cc(O)ccc2c1 : 28.4

Measured growth inhibition of COc1ccc(NC(=O)CC/C(CC(=O)c2ccco2)=N/NC(=O)C(N)=O)cc1 : -18.1
